- studySystem: rNaV1.8 (Rattus norvegicus)
- Sequence (Q62968 whole entry): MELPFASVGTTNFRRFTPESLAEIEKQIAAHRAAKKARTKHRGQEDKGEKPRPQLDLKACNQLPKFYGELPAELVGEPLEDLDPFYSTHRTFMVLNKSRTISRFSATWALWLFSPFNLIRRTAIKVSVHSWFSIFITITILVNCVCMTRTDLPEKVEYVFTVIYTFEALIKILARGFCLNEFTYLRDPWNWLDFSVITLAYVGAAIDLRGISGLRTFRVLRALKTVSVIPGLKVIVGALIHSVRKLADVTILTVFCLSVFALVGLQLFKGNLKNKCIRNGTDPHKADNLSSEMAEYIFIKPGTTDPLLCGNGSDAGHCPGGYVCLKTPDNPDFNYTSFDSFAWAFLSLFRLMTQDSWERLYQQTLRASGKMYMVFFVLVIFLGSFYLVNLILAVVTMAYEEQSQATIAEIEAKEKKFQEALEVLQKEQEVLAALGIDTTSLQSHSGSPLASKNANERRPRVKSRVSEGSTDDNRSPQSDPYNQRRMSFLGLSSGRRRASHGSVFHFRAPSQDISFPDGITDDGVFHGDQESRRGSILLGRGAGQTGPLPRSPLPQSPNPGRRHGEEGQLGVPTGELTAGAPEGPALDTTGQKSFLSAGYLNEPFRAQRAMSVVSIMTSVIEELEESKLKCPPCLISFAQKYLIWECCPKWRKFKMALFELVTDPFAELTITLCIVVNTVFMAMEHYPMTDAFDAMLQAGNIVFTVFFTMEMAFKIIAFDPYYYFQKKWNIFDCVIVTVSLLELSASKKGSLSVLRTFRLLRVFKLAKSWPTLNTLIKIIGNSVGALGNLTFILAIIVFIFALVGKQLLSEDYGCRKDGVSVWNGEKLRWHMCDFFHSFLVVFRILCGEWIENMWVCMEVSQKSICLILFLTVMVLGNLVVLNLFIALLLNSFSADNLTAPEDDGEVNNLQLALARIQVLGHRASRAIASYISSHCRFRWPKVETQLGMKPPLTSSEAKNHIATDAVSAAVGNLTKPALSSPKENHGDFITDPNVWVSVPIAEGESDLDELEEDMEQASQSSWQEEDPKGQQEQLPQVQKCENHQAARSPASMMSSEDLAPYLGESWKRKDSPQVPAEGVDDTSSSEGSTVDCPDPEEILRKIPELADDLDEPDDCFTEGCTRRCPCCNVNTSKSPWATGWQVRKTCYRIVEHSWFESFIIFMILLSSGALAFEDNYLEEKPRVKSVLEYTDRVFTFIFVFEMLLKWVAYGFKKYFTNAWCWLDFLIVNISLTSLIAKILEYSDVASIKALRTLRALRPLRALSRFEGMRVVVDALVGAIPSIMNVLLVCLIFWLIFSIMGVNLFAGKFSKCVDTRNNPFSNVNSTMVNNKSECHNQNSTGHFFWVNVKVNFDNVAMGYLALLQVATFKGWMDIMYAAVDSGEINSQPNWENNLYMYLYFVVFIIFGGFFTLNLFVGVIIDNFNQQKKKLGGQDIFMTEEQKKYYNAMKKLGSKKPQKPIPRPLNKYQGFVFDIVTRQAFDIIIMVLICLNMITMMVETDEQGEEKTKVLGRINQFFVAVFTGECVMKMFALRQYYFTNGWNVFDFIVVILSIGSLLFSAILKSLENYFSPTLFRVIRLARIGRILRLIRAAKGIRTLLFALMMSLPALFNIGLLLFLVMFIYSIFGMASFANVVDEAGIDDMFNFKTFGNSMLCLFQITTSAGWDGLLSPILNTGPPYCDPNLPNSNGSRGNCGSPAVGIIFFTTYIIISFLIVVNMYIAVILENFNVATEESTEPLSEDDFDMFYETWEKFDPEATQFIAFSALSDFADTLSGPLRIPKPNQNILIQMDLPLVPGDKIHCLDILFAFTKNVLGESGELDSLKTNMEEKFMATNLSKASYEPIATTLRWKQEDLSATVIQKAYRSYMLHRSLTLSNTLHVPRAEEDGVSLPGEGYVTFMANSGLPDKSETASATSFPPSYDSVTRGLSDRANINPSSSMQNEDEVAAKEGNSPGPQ
- testDetails: Two-electrode voltage-clamp on Xenopus laevis oocytes expressing NaV1.8
- conditionInfo: read-out: Maximum % inhibition NaV1.8
Where a SMILES comes first, the peptide text is derived from it. Bridges are numbered along the chain shown (N, C = ends).
For each record, write down the corresponding inhibition at 100 µM.
The reply should contain only the number, in %.

Value of measured inhibition at 100 µM for the entry C[C@@H]1NC(=O)[C@H](Cc2c[nH]c3ccccc23)NC(=O)[C@H](CCCNC(=N)N)NC(=O)[C@H](CCCCN)NC(=O)[C@@H](N)CSSC[C@@H](C(N)=O)NC(=O)[C@H](CCCNC(=N)N)NC(=O)[C@H](CC(N)=O)NC(=O)[C@H](Cc2c[nH]c3ccccc23)NC(=O)[C@H](CCCNC(=N)N)NC1=O [PnCS1[R2K], CKRWARWNRC ^*] (H-CKRWARWNRC-NH2; disulfide 1-10) : 0

Item: C[C@@H]1NC(=O)[C@H](Cc2c[nH]c3ccccc23)NC(=O)[C@H](CCCNC(=N)N)NC(=O)[C@H](CCC(=O)O)NC(=O)[C@@H](N)CSSC[C@@H](C(N)=O)NC(=O)[C@H](CCCNC(=N)N)NC(=O)[C@H](CC(N)=O)NC(=O)[C@H](Cc2c[nH]c3ccccc23)NC(=O)[C@H](CCCNC(=N)N)NC1=O [PnCS1[R2E], CERWARWNRC ^*] (H-CERWARWNRC-NH2; disulfide 1-10) | inhibition at 100 µM: 0
